Measured log10 of IC50 values are reported for all entries that follow.
# assayTarget: human P2X3 receptor (Homo sapiens, UniProt P56373)
# Sequence (P56373 whole entry): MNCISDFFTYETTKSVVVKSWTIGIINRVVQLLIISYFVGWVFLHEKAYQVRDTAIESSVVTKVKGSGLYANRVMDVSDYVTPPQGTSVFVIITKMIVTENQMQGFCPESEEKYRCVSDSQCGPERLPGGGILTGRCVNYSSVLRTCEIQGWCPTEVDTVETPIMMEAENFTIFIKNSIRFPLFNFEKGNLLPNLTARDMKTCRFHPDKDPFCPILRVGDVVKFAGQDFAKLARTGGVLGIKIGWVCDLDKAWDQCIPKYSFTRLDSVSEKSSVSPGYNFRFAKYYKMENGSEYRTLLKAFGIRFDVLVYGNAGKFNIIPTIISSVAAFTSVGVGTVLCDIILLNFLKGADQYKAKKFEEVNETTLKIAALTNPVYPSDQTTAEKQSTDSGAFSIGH
# assayDetails: Intracellular calcium measurement, antagonist activity at human P2X3 receptors (hP2X3 1321N1), Fluo8
# Format: cell-based
# Set-up: expressed in transfected cells; host or cells: human astrocytoma 1321N1 (1312N1 [sic])
# measurementParameters: column 3); 1321N1 cells, human P2X3, Fluo8, agonist ATP at EC50
All values: base-10 log of IC50 in nM.

compound	log10 of IC50
CCc1cc2n(CC(=O)Nc3ccc(F)cn3)c3c(c(=O)n2n1)CN(C1CCN(C(=O)OC(C)(C)C)CC1)C3=O [Example 76]	3.22
CC(C)Cc1cc2n(CC(=O)Nc3ccc(F)cn3)c3c(c(=O)n2n1)CN(C1CCCC1)C3=O [Example 93]	0.90
CCc1cc2n(CC(=O)Nc3ccc(F)cn3)c3c(c(=O)n2n1)CN(C[C@@H]1COCCN1CCC(F)(F)F)C3=O [Example 261]	1.59
CC(C)N1Cc2c(n(CC(=O)Nc3ccc(F)cn3)c3cc(NCCOCc4ccccc4)nn3c2=O)C1=O [Example 176]	1.83
CC(C)N1Cc2c(n(CC(=O)Nc3ccc(F)cn3)c3cc(C(F)(F)F)nn3c2=O)C1=O [Example 31]	2.44
CC(C)N1Cc2c(n(CC(=O)Nc3ccc(F)cn3)c3cc(C4CNC4)nn3c2=O)C1=O.Cl [Example 244]	2.45

# ---- query compound ----
Request: Need log10 of IC50 of COC[C@H](C)N1Cc2c(n(CC(=O)Nc3ccc(F)cn3)c3cc(C(=O)N(C)CC4CC4)nn3c2=O)C1=O [Example 195] , thanks.
Result: 1.34

====

# assayTarget: human P2X3 receptor (Homo sapiens, UniProt P56373)
# assayDetails: Intracellular calcium measurement, antagonist activity at human P2X3 receptors (hP2X3 1321N1), Fluo8
# Assay type: cell-based
# Set-up: expressed in transfected cells; host or cells: human astrocytoma 1321N1 (1312N1 [sic])
# measurementParameters: column 3); 1321N1 cells, human P2X3, Fluo8, agonist ATP at EC50
Measured IC50 values are reported for all entries that follow.
Only the number, expressed in nM, is required.

Example cases with answers are listed next.
compound	reportedValue
CC[C@H](C)N1Cc2c(n(CC(=O)Nc3ccc(F)cn3)c3cc(C(F)(F)F)nn3c2=O)C1=O	537
CC(C)c1cc2n(CC(=O)Nc3ccc(Cl)cn3)c3c(c(=O)n2n1)CN(C(C)C)C3=O	48
O=C(Cn1c2c(c(=O)n3nc(Cl)cc13)CN(CCN1CCOCC1)C2=O)Nc1ccc(F)cn1	92
CC(C)N1Cc2c(n(CC(=O)Nc3ccc(F)cn3)c3cc(C4CCN(C)CC4)nn3c2=O)C1=O	195
CCc1cc2n(CC(=O)Nc3ccc(F)cn3)c3c(c(=O)n2n1)CN(C[C@@H]1CN(C(=O)OC(C)(C)C)CCO1)C3=O	130

Request: Need IC50 of CCc1cc2n(CC(=O)Nc3ccc(Cl)cn3)c3c(c(=O)n2n1)CN(CC1CCCO1)C3=O (stereo not drawn) , thanks.
Result: 240

Request: Need IC50 of CCc1cc2n(CC(=O)Nc3ccc(F)cn3)c3c(c(=O)n2n1)CN(C[C@H]1CN(C(C)=O)CCO1)C3=O , thanks.
Result: 325

Request: Need IC50 of CC[C@@H](C)N1Cc2c(n(CC(=O)Nc3ccc(F)cn3)c3cc(C(F)(F)F)nn3c2=O)C1=O , thanks.
Result: 59

Request: Need IC50 of Cc1cc2n(CC(=O)Nc3ccc(F)cn3)c3c(c(=O)n2n1)CN(C(C)C)C3=O , thanks.
Result: 153

Request: Need IC50 of CC(C)(C)c1cc2n(CC(=O)Nc3ccc(F)cn3)c3c(c(=O)n2n1)CN(CC1CCOCC1)C3=O , thanks.
Result: 410

Request: Need IC50 of CC(C)N1Cc2c(n(CC(=O)Nc3ccc(F)cn3)c3cc(C4=CCN(C(=O)OC(C)(C)C)CC4)nn3c2=O)C1=O , thanks.
Result: 34

Request: Need IC50 of CC(C)N1Cc2c(n(CC(=O)Nc3ccc(F)cn3)c3cc(C4CCN(C5CCC5)C4)nn3c2=O)C1=O (stereo not drawn) , thanks.
Result: 118

Request: Need IC50 of CC(=O)Nc1cc2n(CC(=O)Nc3ccc(F)cn3)c3c(c(=O)n2n1)CN(C(C)C)C3=O , thanks.
Result: 323

Request: Need IC50 of COCCN1Cc2c(n(CC(=O)Nc3ccc(F)cn3)c3cc(C4CC4)nn3c2=O)C1=O , thanks.
Result: 20

Request: Need IC50 of CC(C)(C)c1cc2n(CC(=O)Nc3ccc(F)cn3)c3c(c(=O)n2n1)CN(C1CCCC1)C3=O , thanks.
Result: 46

// data source = patent US11319324B2
